# Tested on: Fathead minnow (Pimephales promelas) acute toxicity, lethality
# assay.comment: DSSTox (EPAFHM) EPA Fathead Minnow Acute Toxicity
Below: a set of entries, each annotated with reported Potency.

{"molecule": "O=Cc1ccc(O)cc1O", "endpoint.label": "Potency", "value.reported": "95 µM"}
{"molecule": "O=Cc1ccccc1", "endpoint.label": "Potency", "value.reported": "93 µM"}
{"molecule": "N#CCC#N", "endpoint.label": "Potency", "value.reported": "8.48 µM"}
{"molecule": "CCCCCCOC(C)=O", "endpoint.label": "Potency", "value.reported": "30.5 µM"}
{"molecule": "O=Cc1ccccc1F", "endpoint.label": "Potency", "value.reported": "10.9 µM"}

Problem: Give a short answer stating reported Potency for CCCCCCCCCC(C)=O .
Result: 8.81 µM

Problem: Give a short answer stating reported Potency for CNC(=O)Oc1ccc(N(C)C)c(C)c1 .
Result: 9.36 µM

Problem: Give a short answer stating reported Potency for COc1ccc(C=O)c(OC)c1 .
Result: 121 µM

Problem: Give a short answer stating reported Potency for CC(=O)Nc1ccc(O)cc1 .
Result: 5390 µM

Problem: Give a short answer stating reported Potency for S=c1[nH]c2cc(Cl)ccc2s1 .
Result: 15.9 µM

Problem: Give a short answer stating reported Potency for CCCBr .
Result: 547 µM

Problem: Give a short answer stating reported Potency for CCCCCCCO .
Result: 297 µM

---

# Tested on: Fathead minnow (Pimephales promelas) acute toxicity, lethality
# assay.comment: DSSTox (EPAFHM) EPA Fathead Minnow Acute Toxicity
endpoint.label: Potency

Reference set (2 entries):
{"compound": "COc1ccc(C(C)=O)c(O)c1", "system.name": "Fathead minnow (Pimephales promelas) acute toxicity, lethality", "Potency": "418 µM"}
{"compound": "NCCO", "system.name": "Fathead minnow (Pimephales promelas) acute toxicity, lethality", "Potency": "33900 µM"}

Problem: Quote Fathead minnow (Pimephales promelas) acute toxicity, lethality Potency for entry CCC(C)n1c(=O)[nH]c(C)c(Br)c1=O (configuration not stated) .
Result: 712 µM

Problem: Quote Fathead minnow (Pimephales promelas) acute toxicity, lethality Potency for entry ClCC(Cl)Cl .
Result: 612 µM

Problem: Quote Fathead minnow (Pimephales promelas) acute toxicity, lethality Potency for entry Cc1ccccc1C#N .
Result: 382 µM

Problem: Quote Fathead minnow (Pimephales promelas) acute toxicity, lethality Potency for entry NC(=O)c1c(Cl)cccc1Cl .
Result: 2470 µM

Problem: Quote Fathead minnow (Pimephales promelas) acute toxicity, lethality Potency for entry c1ccc(CC2=NCCN2)cc1 .
Result: 1800 µM

Problem: Quote Fathead minnow (Pimephales promelas) acute toxicity, lethality Potency for entry CC(O)CC(C)(C)O (configuration not stated) .
Result: 90500 µM

Problem: Quote Fathead minnow (Pimephales promelas) acute toxicity, lethality Potency for entry Nc1ccccc1Cl .
Result: 45 µM

Problem: Quote Fathead minnow (Pimephales promelas) acute toxicity, lethality Potency for entry O=Cc1cc(Br)cc(Br)c1O .
Result: 3.04 µM

Problem: Quote Fathead minnow (Pimephales promelas) acute toxicity, lethality Potency for entry CCCCCC(=O)O .
Result: 2760 µM

Problem: Quote Fathead minnow (Pimephales promelas) acute toxicity, lethality Potency for entry O[C@@H]1CCCC[C@H]1c1ccccc1 .
Result: 252 µM

---

Below: a set of entries, each annotated with reported Potency.
# Test system: Fathead minnow (Pimephales promelas) acute toxicity, lethality
# assay.comment: DSSTox (EPAFHM) EPA Fathead Minnow Acute Toxicity

Problem: Give a short answer stating reported Potency for Brc1ccccc1Br .
Result: 17.2 µM

Problem: Give a short answer stating reported Potency for C=CCO .
Result: 5.51 µM
